Reference source: patent US20220380348A1

experiment: Pharmacokinetic testing of salt forms, oral dosing in rats (Example 5); type: in vivo; conditions: rat, plasma, 18.2 mg/kg, fasted male Sprague-Dawley rats, mean values, dose mg/kg: Compound 1 18.2, Phosphate 14.3, Tartrate 18.7, Malate 18.6, Succinate 18.7, Benzenesulfonate 17.6, read-out: AUC0-24 hours
reported-property: AUC(0-t)

Give AUC(0-t) for `CN1CCN(Cc2ccc(Nc3ncc(Cl)c(Nc4ccccc4S(=O)(=O)N(C)C)n3)cc2)CC1`
458 ng·h/mL

* * *

test: Pharmacokinetic testing of salt forms, oral dosing in rats (Example 5); type: in vivo; details: rat, plasma, 18.2 mg/kg, fasted male Sprague-Dawley rats, mean values, dose mg/kg: Compound 1 18.2, Phosphate 14.3, Tartrate 18.7, Malate 18.6, Succinate 18.7, Benzenesulfonate 17.6
reported-property: bioavailability (%)
Return type: number; implicit unit %.

Please give the documented bioavailability of `CN1CCN(Cc2ccc(Nc3ncc(Cl)c(Nc4ccccc4S(=O)(=O)N(C)C)n3)cc2)CC1`
26.9
